System: 242566-281-R-J2-PDC complex spheroid viability
Assay: Anticancer human tumor 242566-281-R-J2-PDC patient-derived pancreatic carcinoma cell line growth inhibition [RAS]
Details: second compound 0.03 µM; first compound 0.3 µM; hits give low values
metric.name: viability, T/C (%)
Give just the number in %; leave the unit off.

// below: answered molecules
| molecule | unit.text | numeric.value |
| --- | --- | --- |
| CC1(C)CCC(Nc2ncc(C(F)(F)F)c(-c3c[nH]c4c(P(C)(C)=O)c(C#N)ccc34)n2)CN1 (centres undefined) + CCn1c(-c2cc(N3CCN(C)CC3)cnc2C(C)OC)c2c3cc(ccc31)-c1csc(n1)CC(NC(=O)C1CC1C)C(=O)N1CCCC(N1)C(=O)OCC(C)(C)C2 | % | 27.2 |
| CCc1c2c(nc3ccc(O)cc13)-c1cc3c(c(=O)n1C2)COC(=O)[C@]3(O)CC + CCn1c(-c2cccnc2C(C)OC)c2c3cc(ccc31)N1CCOC(CC(NC(=O)C(C(C)C)N(C)C(=O)C3(F)CCN(C(=O)C#CC(C)(C)N(C)C)CC3)C(=O)N3CCCC(N3)C(=O)OCC(C)(C)C2)C1 | % | 11.6 |
| CCc1c2c(nc3ccc(O)cc13)-c1cc3c(c(=O)n1C2)COC(=O)[C@]3(O)CC + CCn1c(-c2cc(N3CCN(C)CC3)cnc2C(C)OC)c2c3cc(ccc31)-c1csc(n1)CC(NC(=O)C1CC1C)C(=O)N1CCCC(N1)C(=O)OCC(C)(C)C2 | % | 11.9 |

Query: Would you mind telling me what viability, T/C value was observed for CC1(C)CCC(Nc2ncc(C(F)(F)F)c(-c3c[nH]c4c(P(C)(C)=O)c(C#N)ccc34)n2)CN1 (centres undefined) + CCn1c(-c2cccnc2C(C)OC)c2c3cc(ccc31)N1CCOC(CC(NC(=O)C(C(C)C)N(C)C(=O)C3(F)CCN(C(=O)C#CC(C)(C)N(C)C)CC3)C(=O)N3CCCC(N3)C(=O)OCC(C)(C)C2)C1 ?
Reply: 93.4

* * *

System: 242566-281-R-J2-PDC complex spheroid viability
Assay: Anticancer human tumor 242566-281-R-J2-PDC cell line growth inhibition [RAS];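 further: spheroids exposed to compound for 7 days before readout; 100% = DMSO vehicle control wells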
Settings: second compound 0.0949 µM; first compound 0.316 µM; hits give low values
metric.name: viability, T/C (%)
Report as a plain number; the unit % is understood.

Recorded results for 3 molecules are shown here.
| molecule | unit.text | viability, T/C |
| --- | --- | --- |
| CCN1CCN(Cc2ccc(Nc3ncc(F)c(-c4cc(F)c5nc(C)n(C(C)C)c5c4)n3)nc2)CC1 + CCn1c(-c2cc(N3CCN(C)CC3)cnc2C(C)OC)c2c3cc(ccc31)-c1csc(n1)CC(NC(=O)C1CC1C)C(=O)N1CCCC(N1)C(=O)OCC(C)(C)C2 | % | 22 |
| Cc1nc(N2CCC3(CC2)COC(C)C3N)c(CO)nc1Sc1ccnc(N)c1Cl (centres undefined) + CCn1c(-c2cc(N3CCN(C)CC3)cnc2C(C)OC)c2c3cc(ccc31)-c1csc(n1)CC(NC(=O)C1CC1C)C(=O)N1CCCC(N1)C(=O)OCC(C)(C)C2 | % | 18.5 |
| CC(Nc1ccc2c(c1)OCCn1cc(N3C(=O)OCC3C(F)F)nc1-2)C(N)=O (centres undefined) + CCn1c(-c2cccnc2C(C)OC)c2c3cc(ccc31)N1CCOC(CC(NC(=O)C(C(C)C)N(C)C(=O)C3(F)CCN(C(=O)C#CC(C)(C)N(C)C)CC3)C(=O)N3CCCC(N3)C(=O)OCC(C)(C)C2)C1 | % | 69.9 |

Now look at this entry.
Query: Give the measured viability, T/C of O=C(c1ccc(F)c(F)c1Nc1ccc(I)cc1F)N1CC(O)([C@@H]2CCCCN2)C1 + CCn1c(-c2cccnc2C(C)OC)c2c3cc(ccc31)N1CCOC(CC(NC(=O)C(C(C)C)N(C)C(=O)C3(F)CCN(C(=O)C#CC(C)(C)N(C)C)CC3)C(=O)N3CCCC(N3)C(=O)OCC(C)(C)C2)C1 .
Reply: 26.5

These data points were gathered from PubChem BioAssay AID2060910.
